Where do the numbers come from? From PubChem BioAssay (NCI).

Test system: NCI-H460 lung
testName: NCI-60 one-dose screen, 48 h (100 = growth as untreated, 0 = no growth, -100 = all killed)
assaySetup: 10 µM unless noted
Description: Growth inhibition of the NCI-H460 human Non-Small Cell Lung tumor cell line is measured as a screen for anti-cancer activity. Cells are grown in 96 well plates and exposed to the test compound for 48 hours. Compounds are tested at a single concentration, which is 10^-5 M for most compounds. The reported endpoint is percent growth (GI% or GIPRCNT), where numbers from 0 - 100% represent growth inhibition, and numbers from -100% - 0 represent cell death. […]
About 83,000 compounds went through this panel and 20% of them were active in at least one assay; those are over-represented in the sample as a whole. Active and inactive are the calls of the source. How the source made its calls: active means growth percent below 10; inactive means the rest.
Kindly supply the reported growth values for the records listed here.

As a guide, the following entries are already answered.
[
  {
    "smilesInput": "CC[C@@H]1NC(=O)[C@H]([C@H](O)[C@H](C)C/C=C/c2ccc(CN3C(=O)C(C)=C(C)C3=O)cc2)N(C)C(=O)[C@H](C(C)C)N(C)C(=O)[C@H](CC(C)C)N(C)C(=O)[C@H](CC(C)C)N(C)C(=O)[C@@H](C)NC(=O)[C@H](C)NC(=O)[C@H](CC(C)C)N(C)C(=O)[C@H](C(C)C)NC(=O)[C@H](CC(C)C)N(C)C(=O)CN(C)C1=O",
    "growth": "80.7% (inactive)"
  },
  {
    "smilesInput": "COc1ccc2c(O)c(/C=C3\\N=Nc4nc(C)ccc43)oc2c1CC1CCNCC1",
    "growth": "79.3% (inactive)"
  },
  {
    "smilesInput": "COc1ccc(C(=O)N/N=C/c2ccc(O)cc2O)cc1Nc1ccnc(C(F)(F)F)c1",
    "growth": "24.7% (inactive)"
  },
  {
    "smilesInput": "O=c1ccc2nc(-c3ccccn3)nn(-c3ccccc3)c-2c1",
    "growth": "109% (inactive)"
  },
  {
    "smilesInput": "O=S(=O)(O)c1ccc(N=Nc2ccc(N=Nc3cccc4ccccc34)c(S(=O)(=O)O)c2)cc1",
    "growth": "98.9% (inactive)"
  }
]

Please give growth, item by item, for the list that follows.
1. O=C1CCCCN1CCCCC#Cc1cccc(C#Cc2cccnc2)c1
2. Cc1ccc(-c2nc3nc(-c4ccccc4)nc(N4CCCNCC4)c3o2)cc1
3. N=C(N)SCc1c2ccccc2c(CSC(=N)N)c2ccccc12
4. C=C1C(=O)O[C@H]2[C@H]1CC/C(COC(=O)NCCCCNC(=O)OC/C1=C/CC[C@@]3(C)O[C@H]3[C@H]3OC(=O)C(=C)[C@@H]3CC1)=C\CC[C@@]1(C)O[C@@H]21
5. COc1ccc(/C=C/C(=O)c2cc3c(N)c(C(=O)Nc4ccccc4Cl)sc3nc2C)cc1
6. CCN1CCN(C(=O)[C@]23CC[C@@H](C)[C@H](C)[C@@H]2C2=CC[C@@H]4[C@@]5(C)CCC(=O)C(C)(C)[C@@H]5CC[C@@]4(C)[C@]2(C)CC3)CC1
7. Cc1ccc(-c2nc3nc(-c4ccc(F)cc4)nc(N4CCCNCC4)c3o2)cc1

Outgoing:
73% (inactive)
-57.7% (active)
34.4% (inactive)
102% (inactive)
32.6% (inactive)
-55.1% (active)
-83.2% (active)

# batch: return growth for each of the 7 molecules below
1. CCN(CC)CC#CCOC(=O)[C@]1(C)CCC[C@]2(C)c3ccc(C(C)C)cc3CC[C@@H]12
2. O=C(CCl)n1nnnc1Cc1ccccc1
3. COc1ccc(C/C(C)=C(/c2ccc(OCCN3CCCCCC3)cc2)c2ccc(OC(=O)c3ccccc3)cc2)cc1
4. CCNC(=S)n1nc(SC)c(C(=O)OCC)c1N
5. CCn1cc(C(=O)NN=C2CCCC2)c(=O)c2ccc(C)nc21
6. COc1ccc(/C=N/NC(=O)CN2CCN(c3cc4c(cc3F)c(=O)c(C(=O)O)cn4C3CC3)CC2)cc1O
7. O=C(N=Nc1c(O)[nH]c2ccccc12)Nc1ccc(Br)cc1

Outgoing:
["97.9% (inactive)", "108% (inactive)", "110% (inactive)", "106% (inactive)", "92.9% (inactive)", "105% (inactive)", "92.1% (inactive)"]

List growth for every entry below, keeping the order given.
1. O=C(c1ccc(Nc2nccc(NCCCNc3ccnc4cc(Cl)ccc34)n2)cc1)N1CCCCC1
2. Cc1ccc(-c2nc(SCC(=O)c3ccc(C#N)cc3)[nH]c(=O)c2C#N)cc1

Outgoing:
11.3% (inactive)
115% (inactive)
